target desc: C-C chemokine receptor type 1 (Homo sapiens, UniProt P32246)
Sequence (P32246 whole entry): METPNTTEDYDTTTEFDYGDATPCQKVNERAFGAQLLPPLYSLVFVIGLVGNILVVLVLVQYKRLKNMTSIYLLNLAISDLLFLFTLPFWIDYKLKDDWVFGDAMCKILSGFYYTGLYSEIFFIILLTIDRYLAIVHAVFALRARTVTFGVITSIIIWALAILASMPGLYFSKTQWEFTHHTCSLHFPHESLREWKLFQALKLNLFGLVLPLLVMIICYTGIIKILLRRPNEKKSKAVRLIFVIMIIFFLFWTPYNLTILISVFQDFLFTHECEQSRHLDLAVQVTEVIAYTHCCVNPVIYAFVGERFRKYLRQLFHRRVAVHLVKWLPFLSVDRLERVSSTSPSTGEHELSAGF
assay comment: Inhibition of MIP-1-alpha-induced intracellular calcium mobilization in HEK293 cells expressing human CCR1 receptor
I'd appreciate it if you marked entries yes (1) when IC50 is lower than 5 µM and no (0) when it is not.

compound	assigned category
N#Cc1ccc(C2(O)CCN(CCCC(C#N)(c3ccccc3)c3ccccc3)CC2)cc1	no (0)
C[N+]1(CCCC(C#N)c2ccc3ccccc3c2)CCC(O)(c2ccc(Cl)cc2)CC1 (centres undefined)	yes (1)
C[N+]1(CCCC(c2ccccc2)c2ccccc2)CCC(O)(c2ccc(Cl)cc2)CC1 (centres undefined)	yes (1)
N#CC(CCN1CCC(O)(c2ccc(Cl)cc2)CC1)(c1ccccc1)c1ccccc1	yes (1)
N#CC(CCCCN1CCC(O)(c2ccc(Cl)cc2)CC1)(c1ccccc1)c1ccccc1	yes (1)
CCOC(=O)C(C#N)(CCCN1CCC(O)(c2ccc(Cl)cc2)CC1)c1ccccc1 (centres undefined)	no (0)
N#CC(CCCN1CCC(O)(c2ccc(Cl)cc2)CC1)(c1ccccc1)N1CCCCC1 (centres undefined)	yes (1)
N#CC(CCCN1CCC(O)(c2ccc(Cl)cc2)CC1)c1ccc2ccccc2c1 (centres undefined)	no (0)
CN1C(=O)c2ccccc2C(C#N)(CCCN2CCC(O)(c3ccc(Cl)cc3)CC2)c2ccccc21 (centres undefined)	yes (1)
N#CCC(C#N)(CCCN1CCC(O)(c2ccc(Cl)cc2)CC1)c1ccccc1 (centres undefined)	yes (1)
COc1ccc(C(C#N)CCCN2CCC(O)(c3ccc(Cl)cc3)CC2)cc1Br (centres undefined)	yes (1)
N#CC1(CCCN2CCC(O)(c3ccc(F)cc3)CC2)c2ccccc2CSc2ccccc21 (centres undefined)	yes (1)
N#CC1(CCCN2CCC(O)(c3ccc(Cl)cc3)CC2)c2ccccc2COc2ccccc21 (centres undefined)	no (0)
N#CC(CCCN1CCC(O)(c2ccc(Cl)cc2)CC1)(c1ccccc1)c1ccccc1	yes (1)

---

pIC50 reference
target desc: C-C chemokine receptor type 1 (Homo sapiens)
assay comment: Inhibition of MIP-1-alpha-induced intracellular calcium mobilization in HEK293 cells expressing human CCR1 receptor
Type: functional, cell-based
pIC50: −log10 of the molar value.
readout: pIC50

compound	readout	numeric result
N#CC(CCCCCN1CCC(O)(c2ccc(Cl)cc2)CC1)(c1ccccc1)c1ccccc1	pIC50	5.25
N#CC(CCCCl)(CCCN1CCC(O)(c2ccc(Cl)cc2)CC1)c1ccccc1 (stereo not given)	pIC50	5.08
N#CC(CCCN1CCC(O)(c2ccc(Cl)cc2)CC1)c1cccs1 (stereo not given)	pIC50	5.08
N#Cc1ccccc1C(C#N)CCCN1CCC(O)(c2ccc(Cl)cc2)CC1 (stereo not given)	pIC50	5.24
N#CC1(CCCN2CCC(O)(c3ccc(Cl)cc3)CC2)c2ccccc2C=Cc2ccccc21	pIC50	5.28
N#CC(CCCN1CCC(O)(c2ccc(Cl)cc2)CC1)c1ccsc1 (stereo not given)	pIC50	5.01
OC1(c2ccc(Cl)cc2)CCN(CCCC(c2ccccc2)c2ccccc2)CC1	pIC50	5.06
N#CC1(CCCN2CCC(O)(c3ccc(Cl)cc3)CC2)c2ccccc2CSc2ccccc21 (stereo not given)	pIC50	5.15
N#CC(CCCN1CCC(O)(c2ccc(Cl)cc2)CC1)c1cccc(O)c1 (stereo not given)	pIC50	5.05
N#CC1(CCCN2CCC(O)(c3ccc(Cl)cc3)CC2)c2ccccc2CCc2ccccc21	pIC50	5.11

---

target desc: C-C chemokine receptor type 1 (Homo sapiens, UniProt P32246)
Sequence (P32246 whole entry): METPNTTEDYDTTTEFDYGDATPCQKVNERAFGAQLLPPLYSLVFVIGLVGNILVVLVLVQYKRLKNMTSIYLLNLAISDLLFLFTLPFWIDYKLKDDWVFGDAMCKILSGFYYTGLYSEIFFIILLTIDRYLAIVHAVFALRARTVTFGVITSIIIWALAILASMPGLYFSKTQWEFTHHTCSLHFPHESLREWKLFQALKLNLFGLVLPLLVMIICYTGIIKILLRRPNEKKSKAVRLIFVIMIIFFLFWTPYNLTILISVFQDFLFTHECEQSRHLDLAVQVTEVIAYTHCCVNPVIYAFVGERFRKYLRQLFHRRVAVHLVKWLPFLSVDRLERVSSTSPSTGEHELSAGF
assay comment: Inhibition of [125I]-MIP-1 alpha binding to recombinant human C-C chemokine receptor type 1 expressed in HEK293 cells
pKi: −log10 of the molar value.

compound	pKi
N#CC1(CCCN2CCC(O)(c3ccc(Br)cc3)CC2)c2ccccc2CSc2ccccc21 (stereo not given)	7.66
N#CC(CCCN1CCC(O)(c2ccc(Cl)cc2)CC1)(c1ccccc1)c1ccccc1	7.28
N#CC(CCCN1CCC(O)(c2ccc(C(F)(F)F)cc2)CC1)(c1ccccc1)c1ccccc1	6.82
CCC(C#N)(CCCN1CCC(O)(c2ccc(Cl)cc2)CC1)c1ccccc1 (stereo not given)	7.03
N#CC(CCCN1CCC(CO)(c2ccccc2)CC1)(c1ccccc1)c1ccccc1	5.12
N#CC(CCCN1CCC(O)(c2ccc(Cl)cc2)CC1)(c1ccccc1)C1CCCCC1 (stereo not given)	6.40
N#CC1(CCCN2CCC(O)(c3ccc(Br)cc3)CC2)c2ccccc2Cc2ccccc21	7.54
COC(=O)C(CCCN1CCC(O)(c2ccc(Cl)cc2)CC1)(c1ccccc1)c1ccccc1	6.39
N#CC(CCCN1CCC(O)(c2ccc(Cl)cc2)CC1)c1cccc([N+](=O)[O-])c1 (stereo not given)	6.29
CC(C#N)(CCCN1CCC(O)(c2ccc(Cl)cc2)CC1)c1ccccc1 (stereo not given)	6.34
COc1ccc(C(C#N)CCCN2CCC(O)(c3ccc(Cl)cc3)CC2)cc1Br (stereo not given)	7.13
N#CC1(CCCN2CCC(O)(c3ccc(Cl)cc3)CC2)c2ccccc2Oc2ccccc21	6.63
C[N+]1(CCCC(C#N)c2ccc3ccccc3c2)CCC(O)(c2ccc(Cl)cc2)CC1 (stereo not given)	7.66
CN1C(=O)c2ccccc2C(C#N)(CCCN2CCC(O)(c3ccc(Cl)cc3)CC2)c2ccccc21 (stereo not given)	7.49
CCOC(=O)C(C#N)(CCCN1CCC(O)(c2ccc(Cl)cc2)CC1)c1ccccc1 (stereo not given)	7.48
COc1cc(C(C#N)CCCN2CCC(O)(c3ccc(Cl)cc3)CC2)cc(OC)c1OC (stereo not given)	6.30
Cc1ccccc1C1(O)CCN(CCCC2(C#N)c3ccccc3CSc3ccccc32)CC1 (stereo not given)	6.79
OC1(c2ccc(Cl)cc2)CCN(CCCC(c2ccccc2)c2ccccc2)CC1	6.94
N#CC1(CCCN2CCC(O)(c3ccc(Cl)c(C(F)(F)F)c3)CC2)c2ccccc2CSc2ccccc21 (stereo not given)	6.65
C[N+]1(CCCC(c2ccccc2)c2ccccc2)CCC(O)(c2ccc(Cl)cc2)CC1 (stereo not given)	8.22

---

pKi reference
target desc: C-C chemokine receptor type 1 (Homo sapiens)
Sequence (P32246 whole entry): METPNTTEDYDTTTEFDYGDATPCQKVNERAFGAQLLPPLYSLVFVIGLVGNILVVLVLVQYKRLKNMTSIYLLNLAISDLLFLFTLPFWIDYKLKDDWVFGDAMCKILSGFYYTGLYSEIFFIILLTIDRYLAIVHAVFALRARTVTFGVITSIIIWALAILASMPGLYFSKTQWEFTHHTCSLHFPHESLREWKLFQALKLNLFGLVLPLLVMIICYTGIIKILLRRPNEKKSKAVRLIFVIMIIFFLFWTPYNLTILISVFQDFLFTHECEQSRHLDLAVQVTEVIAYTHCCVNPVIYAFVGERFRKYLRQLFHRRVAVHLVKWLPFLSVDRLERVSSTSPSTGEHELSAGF
assay comment: Inhibition of [125I]-MIP-1 alpha binding to recombinant human C-C chemokine receptor type 1 expressed in HEK293 cells
pKi: −log10 of the molar value.
readout: pKi

compound	numeric result
N#CC(CCCN1CCC(O)(c2cc(Cl)cc(Cl)c2)CC1)(c1ccccc1)c1ccccc1	5.88
N#CC(CCCN1CCC(O)(c2ccc(Cl)cc2)CC1)c1ccsc1 (centres undefined)	6.63
N#CC(CCCN1CCC(O)(c2cccc(Cl)c2)CC1)(c1ccccc1)c1ccccc1	6.41
N#CC1(CCCN2CCC(O)(c3ccc(Cl)cc3)CC2)c2ccccc2CCc2ccccc21	7.35
N#CC1(CCCN2CCC(O)(c3ccc(Cl)cc3)CC2)c2ccccc2CSc2ccccc21 (centres undefined)	7.62
N#CC(CCCN1CCC(O)(c2ccc(Cl)cc2)CC1)c1ccc(O)cc1 (centres undefined)	6.01
N#CC1(CCCN2CCC(O)(c3ccc(Cl)cc3)CC2)c2ccccc2C[S+]([O-])c2ccccc21 (stereo in doubt; 6p)	7.27
N#CC(CCCN1CCC(O)(c2ccc(Cl)cc2)CC1)c1c(F)c(F)c(F)c(F)c1F (centres undefined)	6.48
COc1ccc(C2(O)CCN(CCCC(C#N)(c3ccccc3)c3ccccc3)CC2)cc1	6.46
N#CC(CCCCN1CCC(O)(c2ccc(Cl)cc2)CC1)(c1ccccc1)c1ccccc1	7.11
N#CC(CCCN1CCC(O)(c2ccc(I)cc2)CC1)(c1ccccc1)c1ccccc1	6.63
N#CC(CCCN1CCC(O)(c2ccc(Cl)cc2)CC1)c1ccccc1Br (centres undefined)	6.44
N#CC(CCCCl)(CCCN1CCC(O)(c2ccc(Cl)cc2)CC1)c1ccccc1 (centres undefined)	7.29
N#CC1(CCCN2CCC(O)(c3ccccc3)CC2)c2ccccc2CSc2ccccc21 (centres undefined)	6.69
N#CC(CCN1CCC(O)(c2ccc(Cl)cc2)CC1)(c1ccccc1)c1ccccc1	5.39
N#CCC(C#N)(CCCN1CCC(O)(c2ccc(Cl)cc2)CC1)c1ccccc1 (centres undefined)	6.90
NCC(CCCN1CCC(O)(c2ccc(Cl)cc2)CC1)(c1ccccc1)c1ccccc1	6.61
N#CC(CCCN1CCC(O)(c2ccc(Cl)cc2)CC1)c1ccc(Cl)cc1 (centres undefined)	6.33
N#CC(CCCN1CCC(O)(c2cccnc2)CC1)(c1ccccc1)c1ccccc1	6.69
N#CC(CCCN1CCC(O)(c2ccc(Cl)cc2)CC1)c1ccc2ccccc2c1 (centres undefined)	6.69
N#CC(CCCN1CCC(O)(c2ccc(Cl)cc2)CC1)c1cccc(O)c1 (centres undefined)	6.81
CN(C)c1ccc(C2(O)CCN(CCCC(C#N)(c3ccccc3)c3ccccc3)CC2)cc1	5.94
N#CC(CCCN1CCC(O)(c2cccs2)CC1)(c1ccccc1)c1ccccc1	5.99
N#CC(CCCN1CCC(O)(c2ccc(Cl)cc2)CC1)c1cccnc1 (centres undefined)	6.00
N#CC(CCCN1CCC(O)(c2ccc3ccccc3c2)CC1)(c1ccccc1)c1ccccc1	6.15
N#CC(CCCN1CCC(O)(c2ccc(Cl)cc2)CC1)c1ccccn1 (centres undefined)	6.23
N#CC1(CCCN2CCC(O)(c3ccc(Cl)cc3)CC2)c2ccccc2COc2ccccc21 (centres undefined)	7.47
N#Cc1ccc(C2(O)CCN(CCCC(C#N)(c3ccccc3)c3ccccc3)CC2)cc1	7.04
N#CC(CCCN1CCC(O)(c2ccc(Cl)cc2)CC1)c1cccc(Oc2ccccc2)c1 (centres undefined)	6.04
O=C(NCC(CCCN1CCC(O)(c2ccc(Cl)cc2)CC1)(c1ccccc1)c1ccccc1)NC1CCNCC1	8.05
N#CC(CCCN1CCC(O)(c2ccc(Cl)cc2)CC1)c1ccccc1O (centres undefined)	6.10
N#CC(CCCN1CCC(O)(c2ccccn2)CC1)(c1ccccc1)c1ccccc1	6.04
N#CC(CCCN1CCC(O)(c2ccc(Cl)cc2)CC1)(c1ccccc1)N1CCCCC1 (centres undefined)	6.89
N#CC(CCCN1CCC(O)(c2ccc(Cl)cc2)CC1)c1ccc(OCc2ccccc2)cc1 (centres undefined)	5.46
C[N+]1(CCCC(C#N)(c2ccccc2)c2ccccc2)CCC(O)(c2ccc(Cl)cc2)CC1 (centres undefined)	8.10
N#CC(CCCN1CCC(O)(c2ccc(Cl)cc2)CC1)c1ccccc1F (centres undefined)	6.43
N#CC(CCCN1CCC(O)(c2ccc(Cl)cc2)CC1)c1cccs1 (centres undefined)	6.89
N#CC1(CCCN2CCC(O)(c3cccc(C(F)(F)F)c3)CC2)c2ccccc2CSc2ccccc21 (centres undefined)	6.21
N#CC1(CCCN2CCC(O)(c3ccc(Cl)cc3)CC2)c2ccccc2C[S+]([O-])c2ccccc21 (stereo in doubt; 6q)	7.15

Data credit: ChEMBL document CHEMBL1132282
